Listed below: IC50 values for each entry.
- protocol-text: Cytotoxicity against human HT29-AK cells after 48 hrs by MTT assay
- Type: functional, cell-based
measurement-name: IC50

>>> endpoint_result("COc1cccc(Nc2nc(-c3cccc(F)c3)nc3ccc(F)cc23)c1")
"40.4 µM"
>>> endpoint_result("Nc1ccccc1Nc1nc(-c2cccc(F)c2)nc2ccc(F)cc12")
"> 50 µM"
>>> endpoint_result("Fc1cccc(Nc2nc(-c3cccc(F)c3)nc3ccc(F)cc23)c1")
"> 50 µM"
>>> endpoint_result("Fc1cccc(-c2nc(Nc3ccc(Br)cc3)c3cc(F)ccc3n2)c1")
"> 50 µM"
>>> endpoint_result("Cc1ccc(Nc2nc(-c3cccc(F)c3)nc3ccc(F)cc23)cc1")
"> 50 µM"
>>> endpoint_result("Fc1cccc(-c2nc(Nc3cccc(Br)c3)c3cc(F)ccc3n2)c1")
"> 50 µM"
>>> endpoint_result("c1ccc(Nc2nc(-c3ccccc3)nc3ccccc23)cc1")
"> 50 µM"
>>> endpoint_result("Cc1cccc(Nc2nc(-c3cccc(F)c3)nc3ccc(F)cc23)c1")
"> 50 µM"
>>> endpoint_result("Oc1ccc(Nc2nc(-c3cccc(F)c3)nc3ccc(F)cc23)cc1")
"> 50 µM"
>>> endpoint_result("Fc1ccc2nc(-c3ccccc3)nc(Nc3ccccc3)c2c1")
"> 50 µM"
>>> endpoint_result("Oc1cccc(Nc2nc(-c3cccc(F)c3)nc3ccc(F)cc23)c1")
"> 50 µM"
>>> endpoint_result("COc1ccccc1Nc1nc(-c2cccc(F)c2)nc2ccc(F)cc12")
"> 50 µM"
>>> endpoint_result("Fc1cccc(-c2nc(Nc3ccc(Cl)cc3)c3cc(F)ccc3n2)c1")
"40.3 µM"
>>> endpoint_result("Nc1cccc(Nc2nc(-c3cccc(F)c3)nc3ccc(F)cc23)c1")
"> 50 µM"
